Protein target, amino acids: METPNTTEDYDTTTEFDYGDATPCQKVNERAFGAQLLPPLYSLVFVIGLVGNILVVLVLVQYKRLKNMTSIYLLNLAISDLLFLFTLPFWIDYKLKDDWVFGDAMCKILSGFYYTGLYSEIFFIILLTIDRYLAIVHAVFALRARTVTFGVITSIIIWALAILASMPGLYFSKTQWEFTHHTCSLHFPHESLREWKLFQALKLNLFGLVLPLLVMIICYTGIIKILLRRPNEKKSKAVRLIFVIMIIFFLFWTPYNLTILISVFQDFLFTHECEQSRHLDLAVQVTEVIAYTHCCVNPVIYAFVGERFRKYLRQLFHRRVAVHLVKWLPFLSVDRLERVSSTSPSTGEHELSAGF
MEASURE_NAME: IC50

>>> experimental_value("Cc1cccc(C(N)=O)c1NC(=O)N1CCC[C@@H]1c1nnc(C)n1Cc1ccc(Cl)cc1")
"< 0.05 µM"
>>> experimental_value("Cc1nnc([C@H]2CCCN2C(=O)N[C@@H](C)c2cccnc2)n1Cc1ccc(Cl)cc1")
"< 0.05 µM"
>>> experimental_value("Cc1noc(C)c1N/C(=N/C#N)N1CCC[C@@H]1c1nnc(C)n1Cc1ccc(Cl)cc1")
"0.05 to 0.5 µM"
>>> experimental_value("Cc1nnc([C@H]2CCCN2C(=O)Nc2c(Cl)nc(N)nc2Cl)n1Cc1ccc(Cl)cc1")
"< 0.05 µM"
>>> experimental_value("Cc1cccc(Cl)c1NC(=O)N1CCC[C@@H]1c1nnc(C)n1Cc1ccc(Cl)cc1")
"< 0.05 µM"
>>> experimental_value("CC[C@H](NC(=O)N1CCC[C@@H]1c1nnc(C)n1Cc1ccc(F)cc1)c1ccc(C(F)(F)F)nc1")
"< 0.05 µM"
>>> experimental_value("Cc1nnc([C@H]2CCCN2C(=O)Nc2ccccc2C(F)(F)F)n1Cc1ccc(Cl)cc1")
"0.05 to 0.5 µM"
>>> experimental_value("CC[C@H](NC(=O)N1CCC[C@@H]1c1nnc(C)n1Cc1ccc(Cl)cc1)c1ccc(C(F)(F)F)nc1C")
"< 0.05 µM"

---

Target chain: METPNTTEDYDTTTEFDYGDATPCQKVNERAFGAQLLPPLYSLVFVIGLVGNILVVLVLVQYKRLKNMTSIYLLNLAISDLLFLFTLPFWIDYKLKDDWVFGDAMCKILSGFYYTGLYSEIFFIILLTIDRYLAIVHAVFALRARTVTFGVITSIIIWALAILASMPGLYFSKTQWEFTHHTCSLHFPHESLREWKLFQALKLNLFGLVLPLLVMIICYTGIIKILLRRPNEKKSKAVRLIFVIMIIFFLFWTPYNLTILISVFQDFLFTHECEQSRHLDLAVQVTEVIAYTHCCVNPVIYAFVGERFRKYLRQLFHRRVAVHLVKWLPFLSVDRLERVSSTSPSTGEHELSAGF
pIC50: −log10 of the molar value.
Recorded pIC50, one value per entry.
MEASURE_NAME: pIC50

>>> experimental_value("COC1C[C@H](c2nnc(C)n2Cc2ccc(Cl)cc2)N(C(=O)Nc2ccc(Cl)cc2F)C1 (stereo partly shown)")
"6.30 to 7.30"
>>> experimental_value("Cc1nnc([C@H]2CCCN2C(=O)Nc2ccc(F)cc2Cl)n1Cc1ccc(Cl)cc1")
"> 7.30"
>>> experimental_value("COCc1nnc([C@H]2CCCN2C(=O)N[C@H]2CCOc3cc(C(F)(F)F)ccc32)n1Cc1ccc(Cl)cc1")
"> 7.30"
>>> experimental_value("Cc1nnc([C@H]2CCCN2C(=O)NC(C)(C)c2ccc(F)cc2)n1Cc1ccc(Cl)cc1")
"> 7.30"
